Reference for the values: patent US6831199B1

Recorded IC50 values for a group of compounds are listed next.
target: Human vitronectin receptor (αvβ3) (Homo sapiens, UniProt P05106+P06756); construct: Human vitronectin receptor (αvβ3) was purified from human placenta; from tissue; host or cells: human placenta; test: Vitronectin adhesion assay (solid phase receptor assay, competition with biotinylated vitronectin); assay type: binding; settings: read-out: AvB3 IC50
Where a name gives a salt, the structure may show the parent alone.

{"columns": ["compound", "IC50 [nM]"],
 "data": [
  ["N=C(N)Nc1cccc(C(=O)NCC(=O)NCCC(=O)O)c1", 26.9],
  ["N=C(N)Nc1cccc(C(=O)NCC(=O)NC(CC(=O)O)c2ccsc2)c1 (racemic) [Example 59, trifluoroacetate salt]", 2.35],
  ["N=C(N)Nc1cccc(C(=O)NCC(=O)NC(CC(=O)O)c2ccccc2O)c1 (racemic) [Example 87, sodium salt, trifluoroacetate salt]", 6.35],
  ["COc1ccc(Br)cc1C(CC(=O)O)NC(=O)CNC(=O)c1cccc(NC(=N)N)c1 (stereo not drawn) [Example 257, trifluoroacetate salt]", 49.2],
  ["N#C/N=C(/NCc1ccccn1)Nc1cccc(C(=O)NCC(=O)NC(CC(=O)O)c2ccccc2)c1 (stereo not drawn)", 55.3],
  ["N=C(N)Nc1cc(C(=O)NCC(=O)NC(CC(=O)O)c2cccnc2)c2ccccc2c1 (racemic)", 0.69],
  ["C#C[C@H](CC(=O)O)NC(=O)CNC(=O)c1cccc(NC(=N)N2CCCC2)c1 [Example 34, trifluoroacetate salt]", 94.3],
  ["CCN/C(=N\\C#N)Nc1cccc(C(=O)NCC(=O)NC(CC(=O)O)c2ccccc2)c1 (stereo not drawn)", 23.8],
  ["N=C(N)Nc1cccc(C(=O)NCC(=O)NC(CC(=O)O)c2ccc(Br)cc2)c1 (racemic) [Example 187, trifluoroacetate salt]", 1.31]
]}
